Measured GI50 by item
Tested on: A549
Experiment: Cytostatic activity against human A549 cells after 5 days by SRB assay
Assay type: functional
Details: A549, 120 h
RECORDED_METRIC: GI50 (µM)

>>> print(df.to_string())
                                smiles_input  system_tested  recorded_metric  op  observed_value
 0  OC[C@H]1O[C@@H](n2cc(Cl)c3c(-c4ccoc4)ncnc32)[C@H](O)[C@@H]1O           A549             GI50   =             1.1
 1  OC[C@H]1O[C@@H](n2cc(Cl)c3c(-c4cccs4)ncnc32)[C@H](O)[C@@H]1O           A549             GI50   =            0.38
 2  OC[C@H]1O[C@@H](n2ccc3c(-c4ccc[se]4)ncnc32)[C@H](O)[C@@H]1O           A549             GI50   =            0.23
 3  OC[C@H]1O[C@@H](n2cc(F)c3c(-c4nccs4)ncnc32)[C@H](O)[C@@H]1O           A549             GI50   =             0.9
 4  OC[C@H]1O[C@@H](n2cc(F)c3c(-c4ccco4)ncnc32)[C@H](O)[C@@H]1O           A549             GI50   =            0.11
 5  OCc1ncnc2c1ccn2[C@@H]1O[C@H](CO)[C@@H](O)[C@H]1O           A549             GI50   =            0.25
 6  OC[C@H]1O[C@@H](n2ccc3c(-c4c[nH]cn4)ncnc32)[C@H](O)[C@@H]1O           A549             GI50   =             2.6
 7  OC[C@H]1O[C@@H](n2ccc3c(-c4cccnc4)ncnc32)[C@H](O)[C@@H]1O           A549             GI50   >              10
 8  OC[C@H]1O[C@@H](n2ccc3c(-c4ccsc4)ncnc32)[C@H](O)[C@@H]1O           A549             GI50   =            0.63
 9  COc1ccc(-c2ncnc3c2ccn3[C@@H]2O[C@H](CO)[C@@H](O)[C@H]2O)cc1           A549             GI50   >              10
10  OC[C@H]1O[C@@H](n2ccc3c(-c4ccoc4)ncnc32)[C@H](O)[C@@H]1O           A549             GI50   =           0.073
11  OC[C@H]1O[C@@H](n2cc(F)c3c(-c4cccs4)ncnc32)[C@H](O)[C@@H]1O           A549             GI50   =           0.061
12  OC[C@H]1O[C@@H](n2cc(F)c3c(-c4c[nH]cn4)ncnc32)[C@H](O)[C@@H]1O           A549             GI50   >              10
13  OC[C@H]1O[C@@H](n2ccc3c(-c4ccccc4)ncnc32)[C@H](O)[C@@H]1O           A549             GI50   >              10
